System: Superantigen negative Staphylococcus aureus (n = 48)
Settings: Superantigen negative (n = 48, 18 h)
Peptide text beside a SMILES is read from it.
property: MIC Range

Lookup: MIC Range / Superantigen negative Staphylococcus aureus (n = 48) / CC[C@H](C)[C@H](NC(=O)CNC(=O)[C@H](CO)NC(=O)[C@H](CC(C)C)NC(=O)[C@@H](NC(=O)[C@H](CCCNC(=N)N)NC(=O)CNC(=O)[C@@H](NC(=O)[C@H](CC(C)C)NC(=O)[C@@H]1CCCN1C(=O)[C@H](CC(C)C)NC(=O)[C@@H](N)Cc1ccccc1)[C@@H](C)CC)C(C)C)C(=O)N[C@@H](CC(C)C)C(N)=O [Temporin A] (H-FLPLIGRVLSGIL-NH2)
4 to 32 mg/L

Request - read-out MIC Range | tested on Superantigen negative Staphylococcus aureus (n = 48) | compound `CCCCCCCCCC(=O)N[C@@H](Cc1c[nH]c2ccccc12)C(=O)N[C@H](CC(N)=O)C(=O)N[C@@H](CC(=O)O)C(=O)N[C@@H]1C(=O)NCC(=O)N[C@@H](CCCN)C(=O)N[C@@H](CC(=O)O)C(=O)N[C@H](C)C(=O)N[C@@H](CC(=O)O)C(=O)NCC(=O)N[C@H](CO)C(=O)N[C@@H]([C@H](C)CC(=O)O)C(=O)N[C@@H](CC(=O)c2ccccc2N)C(=O)O[C@@H]1C`
0.0625 to 4 mg/L

Give MIC Range (Superantigen negative Staphylococcus aureus (n = 48)) of the following compound: CC[C@H](C)[C@H](NC(=O)[C@@H](NC(=O)[C@H](CO)NC(=O)[C@H](C)NC(=O)[C@@H](NC(=O)[C@H](CCCCN)NC(=O)[C@H](CCCCN)NC(=O)[C@@H](NC(=O)[C@@H](NC(=O)[C@H](CC(=O)O)NC(=O)[C@H](Cc1ccccc1)NC(=O)[C@H](CC(C)C)NC(=O)CN)C(C)C)[C@@H](C)CC)C(C)C)C(C)C)C(=O)NCC(=O)NCC(=O)N[C@@H](CC(C)C)C(N)=O [Citropin 1.1] (H-GLFDVIKKVASVIGGL-NH2)
1 to 128 mg/L

MIC Range of CC[C@H](C)[C@H](NC(=O)[C@H](CCCCN)NC(=O)[C@H](CCCCN)NC(=O)[C@H](Cc1ccccc1)NC(=O)[C@H](CC(C)C)NC(=O)[C@H](CCCCN)NC(=O)[C@H](Cc1c[nH]c2ccccc12)NC(=O)[C@@H](N)CCCCN)C(=O)NCC(=O)N[C@@H](C)C(=O)N[C@H](C(=O)N[C@@H](CC(C)C)C(=O)N[C@@H](CCCCN)C(=O)N[C@H](C(=O)N[C@@H](CC(C)C)C(N)=O)C(C)C)C(C)C [CAMEL] (H-KWKLFKKIGAVLKVL-NH2) on Superantigen negative Staphylococcus aureus (n = 48)?
2 to 128 mg/L

Taken from paper PMC5872235.
